- SYSTEM TESTED: human NaV1.8 ion channel (Homo sapiens (Human))
- ASSAY SUMMARY: Compound inhibition activity on human NaV1.8 ion channel in HEK293 cells (whole-cell patch clamp)
- Type: cell-based
- REPORTED CONDITIONS: 100 nm concentration; HEK293 cells, resting protocol; read-out: Inhibition ratio of Nav1.8 (Activity of inhibition)
ENDPOINT NAME: inhibition at 0.1 µM

{"columns": ["COMPOUND", "inhibition at 0.1 µM"],
 "data": [
  ["Cc1cc(F)ccc1Oc1cc(C2CC2)c(C(F)(F)F)cc1C(=O)Nc1ccc(F)c(C(N)C(=O)NCCO)c1 (stereo not shown)", "50 to 80%"],
  ["CNC(C(N)=O)c1cc(NC(=O)c2cc(C(F)(F)F)c(C3CC3)cc2Oc2ccc(F)cc2C)ccc1F (stereo not shown)", "> 80%"],
  ["Cc1cc(F)ccc1Oc1ccc(C(F)(F)F)cc1C(=O)Nc1ccc(F)c(C(N)CCO)c1 (stereo not shown)", "50 to 80%"]
]}

Could you now look at the following compound, please?
Field inhibition at 0.1 µM (entry Cc1cc(F)ccc1Oc1cc(C2CC2)c(C(F)(F)F)cc1C(=O)Nc1ccc(F)c(C(N)C(F)CO)c1 (stereo not shown) ) reads > 80%

###

- SYSTEM TESTED: human NaV1.8 ion channel (Homo sapiens (Human), UniProt Q9Y5Y9)
- Sequence (Q9Y5Y9 whole entry): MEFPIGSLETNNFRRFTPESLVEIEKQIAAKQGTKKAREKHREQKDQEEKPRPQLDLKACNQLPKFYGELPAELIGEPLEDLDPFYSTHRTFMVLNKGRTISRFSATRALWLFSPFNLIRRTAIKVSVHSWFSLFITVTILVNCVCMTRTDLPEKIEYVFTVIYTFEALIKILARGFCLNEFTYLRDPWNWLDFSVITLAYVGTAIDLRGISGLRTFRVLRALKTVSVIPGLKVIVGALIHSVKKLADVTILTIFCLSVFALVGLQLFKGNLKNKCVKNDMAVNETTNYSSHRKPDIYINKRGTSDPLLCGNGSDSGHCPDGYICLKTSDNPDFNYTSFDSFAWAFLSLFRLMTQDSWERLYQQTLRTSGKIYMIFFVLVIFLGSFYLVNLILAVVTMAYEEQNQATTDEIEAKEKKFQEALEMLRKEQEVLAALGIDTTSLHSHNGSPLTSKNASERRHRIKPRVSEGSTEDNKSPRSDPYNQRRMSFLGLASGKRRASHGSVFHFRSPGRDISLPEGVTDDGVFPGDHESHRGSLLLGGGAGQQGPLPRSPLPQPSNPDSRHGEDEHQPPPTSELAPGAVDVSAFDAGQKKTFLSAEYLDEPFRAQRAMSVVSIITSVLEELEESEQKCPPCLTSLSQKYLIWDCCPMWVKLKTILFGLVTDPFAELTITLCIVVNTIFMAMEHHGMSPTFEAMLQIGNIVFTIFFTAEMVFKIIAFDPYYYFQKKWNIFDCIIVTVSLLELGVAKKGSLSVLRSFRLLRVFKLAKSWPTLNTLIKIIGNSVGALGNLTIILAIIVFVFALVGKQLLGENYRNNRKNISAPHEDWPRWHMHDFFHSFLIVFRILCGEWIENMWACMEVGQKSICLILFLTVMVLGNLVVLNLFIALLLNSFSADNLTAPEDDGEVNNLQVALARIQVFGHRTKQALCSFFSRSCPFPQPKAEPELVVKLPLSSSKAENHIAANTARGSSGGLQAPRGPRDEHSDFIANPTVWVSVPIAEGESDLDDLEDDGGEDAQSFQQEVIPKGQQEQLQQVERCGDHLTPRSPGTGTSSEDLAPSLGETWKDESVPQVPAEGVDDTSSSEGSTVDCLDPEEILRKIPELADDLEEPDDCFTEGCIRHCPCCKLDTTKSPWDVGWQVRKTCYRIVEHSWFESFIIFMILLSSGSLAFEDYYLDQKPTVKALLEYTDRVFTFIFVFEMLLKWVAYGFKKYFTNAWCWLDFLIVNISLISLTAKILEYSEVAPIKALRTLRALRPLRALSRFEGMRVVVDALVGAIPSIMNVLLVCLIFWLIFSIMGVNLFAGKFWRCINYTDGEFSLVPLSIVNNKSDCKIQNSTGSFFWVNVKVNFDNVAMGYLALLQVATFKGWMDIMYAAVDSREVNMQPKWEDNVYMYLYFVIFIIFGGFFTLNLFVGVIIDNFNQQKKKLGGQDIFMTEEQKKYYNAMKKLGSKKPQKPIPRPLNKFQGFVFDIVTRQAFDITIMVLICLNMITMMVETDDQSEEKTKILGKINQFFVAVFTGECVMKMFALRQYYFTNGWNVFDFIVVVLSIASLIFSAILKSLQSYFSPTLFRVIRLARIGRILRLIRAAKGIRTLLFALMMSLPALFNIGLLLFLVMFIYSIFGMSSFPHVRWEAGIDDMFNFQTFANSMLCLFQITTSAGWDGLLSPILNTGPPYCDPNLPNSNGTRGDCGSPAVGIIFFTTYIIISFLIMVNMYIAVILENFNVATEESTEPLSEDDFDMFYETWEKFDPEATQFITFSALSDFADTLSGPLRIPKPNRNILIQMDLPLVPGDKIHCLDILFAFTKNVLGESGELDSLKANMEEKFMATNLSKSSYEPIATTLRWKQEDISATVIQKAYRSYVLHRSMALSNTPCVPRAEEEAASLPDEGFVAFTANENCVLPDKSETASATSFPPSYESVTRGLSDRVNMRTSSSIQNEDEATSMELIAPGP
- ASSAY SUMMARY: Compound inhibition activity on human NaV1.8 ion channel in HEK293 cells (whole-cell patch clamp)
- Type: cell-based
- REPORTED CONDITIONS: 100 nm concentration; HEK293 cells, resting protocol; read-out: Inhibition ratio of compounds against Nav1.8 (Activity of inhibition)
Measured inhibition at 0.1 µM, listed per entry.

Solved cases (5 shown):
{"columns": ["COMPOUND", "inhibition at 0.1 µM"],
 "data": [
  ["Cc1cc(F)ccc1Oc1cc(C(F)(F)F)c(Cl)cc1C(=O)Nc1ccnc(OCC(O)CO)c1 (stereo not drawn)", "> 80%"],
  ["COc1cc(OC(F)(F)F)ccc1Oc1cc(C(F)(F)F)c(Cl)cc1C(=O)Nc1ccnc(OC[C@H](O)CO)c1", "> 80%"],
  ["COc1cc(F)ccc1Oc1cc(C(F)(F)F)c(Cl)cc1C(=O)Nc1ccnc(OC[C@H](O)CO)c1", "> 80%"],
  ["Cc1cc(F)ccc1Oc1cc(C(F)(F)F)c(Cl)cc1C(=O)Nc1ccc(F)c(OCC(O)CNC(C)C)c1 (stereo not drawn)", "> 80%"],
  ["Cc1cc(F)ccc1Oc1cc(C2CC2)c(C(F)(F)F)cc1C(=O)Nc1ccc(F)c(OCC(O)CNC(=O)CO)c1 (stereo not drawn)", "> 80%"]
]}

The compound Cc1cc(F)ccc1Oc1cc(C2CC2)c(C(F)(F)F)cc1C(=O)Nc1ccc(F)c(OCC(O)CNc2ccc(F)cc2)c1 (stereo not drawn) showed inhibition at 0.1 µM equal to 20 to 50%

Looking up Cc1cc(F)ccc1Oc1cc(C2CC2)c(C(F)(F)F)cc1C(=O)Nc1ccc(F)c(OC2CC(N)C2)c1 (stereo not drawn) , I see its inhibition at 0.1 µM listed as 50 to 80%

Form field inhibition at 0.1 µM, entry Cc1cc(F)ccc1Oc1cc(C2CC2)c(C(F)(F)F)cc1C(=O)Nc1ccc(F)c(OCC(O)CN2CCCC2)c1 (stereo not drawn) : 20 to 50%

# inhibition at 0.1 µM of Cc1cc(F)ccc1Oc1cc(C2CC2)c(C(F)(F)F)cc1C(=O)Nc1ccc(F)c(OCC(O)CNc2ccn[nH]2)c1 (stereo not drawn) = 50 to 80%

###

Recorded measurements of inhibition at 0.1 µM, one per entry
- SYSTEM TESTED: human NaV1.8 ion channel (Homo sapiens (Human))
- ASSAY SUMMARY: Compound inhibition activity on human NaV1.8 ion channel in HEK293 cells (whole-cell patch clamp)
- Type: cell-based
- REPORTED CONDITIONS: 100 nm concentration; HEK293 cells, resting protocol; read-out: Inhibition ratio of Nav1.8 (Activity of inhibition)

Illustrative cases are given below, each with its answer.
{"columns": ["COMPOUND", "SYSTEM TESTED", "inhibition at 0.1 µM"],
 "data": [
  ["CNC(=O)C(N)c1cc(NC(=O)c2ccc(C(F)(F)F)cc2Oc2ccc(F)cc2C)ccc1F (centres unmarked)", "human NaV1.8 ion channel (Homo sapiens (Human))", "> 80%"],
  ["Cc1cc(F)ccc1Oc1ccc(C(F)(F)F)cc1C(=O)Nc1ccc(F)c(CN)c1", "human NaV1.8 ion channel (Homo sapiens (Human))", "50 to 80%"],
  ["Cc1cc(F)ccc1Oc1cc(C(F)(F)F)ccc1C(=O)Nc1ccc(F)c(C(N)CC(N)=O)c1 (centres unmarked)", "human NaV1.8 ion channel (Homo sapiens (Human))", "> 80%"],
  ["Cc1cc(F)ccc1Oc1cc(C2CC2)c(C(F)(F)F)cc1C(=O)Nc1ccc(F)c(C(CCO)N(C)C)c1 (centres unmarked)", "human NaV1.8 ion channel (Homo sapiens (Human))", "> 80%"],
  ["Cc1cc(F)ccc1Oc1cc(C2CC2)c(C(F)(F)F)cc1C(=O)Nc1ccc(F)c(C(C)CCO)c1 (centres unmarked)", "human NaV1.8 ion channel (Homo sapiens (Human))", "20 to 50%"],
  ["Cc1cc(F)ccc1Oc1cc(C2CC2)c(C(F)(F)F)cc1C(=O)Nc1ccc(F)c(C(C)CCN)c1 (centres unmarked)", "human NaV1.8 ion channel (Homo sapiens (Human))", "50 to 80%"]
]}

Short answer for CC(=O)NC(CCO)c1cc(NC(=O)c2cc(C(F)(F)F)c(C3CC3)cc2Oc2ccc(F)cc2C)ccc1F (centres unmarked) : inhibition at 0.1 µM was 50 to 80%

inhibition at 0.1 µM for Cc1cc(F)ccc1Oc1cc(C2CC2)c(C(F)(F)F)cc1C(=O)Nc1ccc(F)c(C(N)CC(C)O)c1 (centres unmarked) is 50 to 80%

Noted for `Cc1cc(F)ccc1Oc1ccc(C(F)(F)F)cc1C(=O)Nc1ccc(F)c(CNCC(N)=O)c1` : its inhibition at 0.1 µM reads 20 to 50%

The value of inhibition at 0.1 µM measured for the compound Cc1cc(F)ccc1Oc1cc(C2CC2)c(C(F)(F)F)cc1C(=O)Nc1ccc(F)c(C(N)CC(N)=O)c1 (centres unmarked) turned out to be > 80%

Cc1cc(F)ccc1Oc1cc(C2CC2)c(C(F)(F)F)cc1C(=O)Nc1ccc(F)c(C(N)C2CCNC2=O)c1 (centres unmarked) yielded inhibition at 0.1 µM of > 80%

###

- ASSAY SUMMARY: In vivo pharmacokinetic testing of compounds in rats
- REPORTED CONDITIONS: rat; male SD rats, single oral dose 100 mg/kg, plasma; VX-150 dosed as prodrug, active form analysed; read-out: Cmax
ENDPOINT NAME: Cmax (ng/mL)

Here are 3 compounds together with their reported answers.
{"columns": ["COMPOUND", "MEASUREMENT"],
 "data": [
  ["Cc1cc(F)ccc1Oc1cc(C(F)(F)F)c(Cl)cc1C(=O)Nc1ccc(F)c(OC[C@H](O)CNC(=O)CO)c1 [Example 117]", 9570],
  ["Cc1cc(F)ccc1Oc1cc(C2CC2)c(C(F)(F)F)cc1C(=O)Nc1ccc(F)c(OC[C@H](O)CNC(=O)CO)c1 [Example 119]", 5190],
  ["Cc1cc(F)ccc1Oc1cc(C(F)(F)F)c(Cl)cc1C(=O)Nc1ccnc(OC[C@H](O)CO)c1 [Example 114]", 7640]
]}

[1] Cc1cc(F)ccc1Oc1cc(C2CC2)c(C(F)(F)F)cc1C(=O)Nc1cnnc(OC[C@H](O)CO)c1 [Example 112]
[2] Cc1cc(F)ccc1Oc1cc(C(F)(F)F)c(Cl)cc1C(=O)Nc1cnnc(OC[C@H](O)CO)c1 [Example 116]
[3] Cc1cc(F)ccc1Oc1cc(C2CC2)c(C(F)(F)F)cc1C(=O)Nc1ccnc(OC[C@H](O)CO)c1 [Example 104]
**Q:** Hey, can you sort those compounds up there by Cmax, smallest first? Submit the labels in the order that the ranking request calls for.
**A:** 2, 3, 1
(2: 2570 ng/mL, 3: 5140 ng/mL, 1: 8270 ng/mL)

###

- SYSTEM TESTED: hERG ion channels (Homo sapiens (Human), UniProt Q12809)
- Sequence (Q12809 whole entry): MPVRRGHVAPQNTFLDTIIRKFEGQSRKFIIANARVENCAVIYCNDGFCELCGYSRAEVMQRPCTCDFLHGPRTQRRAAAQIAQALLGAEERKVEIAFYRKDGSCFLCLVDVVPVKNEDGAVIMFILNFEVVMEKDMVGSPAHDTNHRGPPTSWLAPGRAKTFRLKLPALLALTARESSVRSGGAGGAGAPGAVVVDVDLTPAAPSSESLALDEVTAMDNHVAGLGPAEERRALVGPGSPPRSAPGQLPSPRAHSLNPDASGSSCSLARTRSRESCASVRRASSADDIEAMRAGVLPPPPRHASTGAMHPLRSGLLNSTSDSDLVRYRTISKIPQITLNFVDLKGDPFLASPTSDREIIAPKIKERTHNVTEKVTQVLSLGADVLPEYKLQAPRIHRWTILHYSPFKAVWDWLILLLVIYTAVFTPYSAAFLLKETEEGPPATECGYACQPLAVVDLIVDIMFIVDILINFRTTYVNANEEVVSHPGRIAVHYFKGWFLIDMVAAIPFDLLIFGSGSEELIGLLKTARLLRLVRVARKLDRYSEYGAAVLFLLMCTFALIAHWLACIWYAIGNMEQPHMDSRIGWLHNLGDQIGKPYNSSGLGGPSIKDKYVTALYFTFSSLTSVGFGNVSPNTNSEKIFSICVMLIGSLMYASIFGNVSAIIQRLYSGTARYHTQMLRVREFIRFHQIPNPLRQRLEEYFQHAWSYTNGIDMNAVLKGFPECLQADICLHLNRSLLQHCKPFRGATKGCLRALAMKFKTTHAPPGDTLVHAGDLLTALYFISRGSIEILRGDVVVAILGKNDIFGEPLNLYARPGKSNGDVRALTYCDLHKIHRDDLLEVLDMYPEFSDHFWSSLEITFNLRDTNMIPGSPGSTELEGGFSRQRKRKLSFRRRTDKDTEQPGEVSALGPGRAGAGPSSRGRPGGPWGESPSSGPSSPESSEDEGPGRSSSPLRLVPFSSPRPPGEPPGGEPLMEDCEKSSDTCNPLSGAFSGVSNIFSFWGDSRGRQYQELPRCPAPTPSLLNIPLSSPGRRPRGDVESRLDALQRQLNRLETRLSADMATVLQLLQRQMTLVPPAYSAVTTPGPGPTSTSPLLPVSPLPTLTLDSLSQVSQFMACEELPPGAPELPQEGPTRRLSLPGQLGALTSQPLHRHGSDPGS
- ASSAY SUMMARY: Inhibition activity test on hERG ion channels in HEK293 cells (cardiac safety, patch clamp)
- REPORTED CONDITIONS: read-out: IC50 for hERG inhibited by compounds; HEK293 cells, hERG tail current
- Protocol: This experiment is used as a cardiac safety test of compound. The reagents are purchased from Sigma (St. Louis, MO) except NaOH and KOH for acid-base titration. Final concentrations of tested solutions are prepared on the testing day and dissolved in extracellular fluid. […] Electrophysiology: Transfer the Cells to the perfusion tank and perfuse with extracellular fluid. […] The intracellular fluid is stored in small quantities in portions in a −80° C. refrigerator, and melt on the day of the experiment. […]
ENDPOINT NAME: pIC50
The read-out pIC50 is expressed as -log10 of concentration in moles per litre.

The recorded pIC50 for entry Cc1cc(F)ccc1Oc1ccc(C(F)(F)F)cc1C(=O)Nc1ccc(F)c(C(N)CC(N)=O)c1 (stereo not shown) equals 5.49
